Test: chemical genetic growth profiling, strain panel (AID 1159580);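 note: tested at 20 µM; growth read once vehicle control cultures reached saturation at 30 °C; 1 = growth at the plate median or of vehicle wells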
Conditions: S. cerevisiae deletion strains, growth OD, locus YLR342W, strain FKS1
Among all 5,500 compounds or so, about 2,000 (36%) were called active. Roughly 18% stayed inconclusive and do not appear here. Cut-off read from the data, not from the text of the source: active = normalized growth mostly below about 0.91 (no sharp cut-off); inconclusive = no clear call, values can overlap the other calls; inactive = mostly above about 0.92. Some of the results follow.
Please reply with one of these outcomes: class 1 (active), class 0 (inactive)

INPUT: Query: recorded result category for CC(C)=CC1C(CO)C1(C)C (centres undefined) in this test
OUTPUT: class 0

INPUT: Just curious, what result did C[C@@H]1CC[C@@]23CCC4(C)[C@@](C=CC5[C@@]6(C)CCC(=O)C(C)(C)C6CC[C@]54C)(OC2=O)C3[C@H]1C (some centres undefined) get here?
OUTPUT: class 0

INPUT: What did the test return for C[C@H]1[C@H](C)CC[C@]2(C(=O)O)CC[C@]3(C)C(=CCC4[C@@]5(C)C[C@@H](O)[C@H](O)[C@@](C)(CO)C5CC[C@]43C)[C@H]12 (some centres undefined) ?
OUTPUT: class 0

INPUT: What is the recorded call for this compound in the test? C[C@H]1[C@H](C)CC[C@]2(C(=O)O)CC[C@]3(C)C(=CCC4[C@@]5(C)C[C@@H](O)[C@H](O)[C@@](C)(CO)C5[C@H](O)C[C@]43C)[C@H]12 (some centres undefined)
OUTPUT: class 0

INPUT: Call for entry C[C@@H](CO)NC(=O)C1C=C2c3cccc4[nH]cc(c34)C[C@H]2N(C)C1 (some centres undefined) :
OUTPUT: class 0

INPUT: What outcome does the record of this test show for CCCc1nc(C)c2c(=O)[nH]c(-c3cc(S(=O)(=O)N4CCN(CC)CC4)ccc3OCC)nn12 ?
OUTPUT: class 0

INPUT: Fill in: this test's call for CC12CCC(=O)C=C1CCc1ccccc12 (centres undefined) is ___
OUTPUT: class 0

INPUT: Could you kindly confirm the outcome this assay logged for COP(N)(=O)SC (centres undefined) ?
OUTPUT: class 0

INPUT: Kindly provide the recorded test outcome for the following compound: COC(=O)[C@H]1[C@H]2C[C@H]3c4[nH]c5cc(OC)ccc5c4CCN3C[C@H]2C[C@@H](OC(=O)c2cc(OC)c(OC)c(OC)c2)[C@@H]1OC
OUTPUT: class 0

INPUT: Hi team, can someone confirm the assay call for O=C(O)C1=CC(=C(c2ccc(O)c(C(=O)O)c2)c2ccc(O)c(C(=O)O)c2)C=CC1=O ?
OUTPUT: class 0

INPUT: Please share the test call associated with COC(=O)NC(=S)Nc1ccccc1NC(=S)NC(=O)OC .
OUTPUT: class 0

INPUT: For CC(C)(C)NCC(O)COc1cccc2c1CCCC2=O (centres undefined) , which call appears in the assay record?
OUTPUT: class 0

INPUT: Per the assay record, what outcome was assigned to O=C(/C=C(\O)c1ccccc1)c1ccccc1O ?
OUTPUT: class 1

INPUT: Give the logged outcome of this assay for the following compound: NC(=O)c1cc([N+](=O)[O-])cc([N+](=O)[O-])c1
OUTPUT: class 0

INPUT: Test call for this compound, please: CC1(C)C(=O)CC[C@@]2(C)C1C[C@@H](O)[C@@]1(C)C3=CC(=O)O[C@@H](c4ccoc4)[C@]3(C)CCC21 (some centres undefined)
OUTPUT: class 0

INPUT: Fill in: this test's call for COC1=CC(=O)C=C(OC)C1=O is ___
OUTPUT: class 0

INPUT: Hi, sorry to bother you, what did the test record for COC(=O)C(N)CS (centres undefined) ?
OUTPUT: class 0

INPUT: Please indicate how the test categorized CC(=O)OCC(=O)[C@@]1(O)CCC2C3C[C@H](C)C4=CC(=O)C=CC4(C)C3[C@@H](O)CC21C (some centres undefined) .
OUTPUT: class 0

INPUT: State the result this test recorded for C[C@@H]1CC[C@@]23CCC4(C)[C@@](C=CC5[C@@]6(C)CC[C@H](O)C(C)(C)C6CC[C@]54C)(OC2=O)C3[C@H]1C (some centres undefined) .
OUTPUT: class 0

---

Test: chemical genetic growth profiling, strain panel (AID 1159580);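 note: tested at 20 µM; growth read once vehicle control cultures reached saturation at 30 °C; 1 = growth at the plate median or of vehicle wells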
Conditions: S. cerevisiae deletion strains, growth OD, locus YPL051W, strain arl3, active compounds read low
Among all 5,500 compounds or so, about 2,000 (36%) were called active. Not shown: some 18% with an inconclusive outcome. The list shows a part of the results.
normalized growth under 1 gets met, anything at or over 1 gets not met.

INPUT: In plain terms, does CCC(=O)NCC[C@@H]1CCc2ccc3c(c21)CCO3 come in under 1 for normalized growth?
OUTPUT: not met

INPUT: Threshold test, normalized growth < 1: O=C(CCCN1CCN(c2ccccn2)CC1)c1ccc(F)cc1
OUTPUT: met

INPUT: Does this compound meet the criterion normalized growth < 1? COc1ccc(-c2cc(=O)c3c(O)cc(O)cc3o2)cc1
OUTPUT: met

INPUT: I wonder whether O=C(CCCN1CCC(O)(c2ccc(Cl)cc2)CC1)c1ccc(F)cc1 has normalized growth below 1. Can you tell?
OUTPUT: met

INPUT: Given CN[C@H]1CC[C@@H](c2ccc(Cl)c(Cl)c2)c2ccccc21 , is recorded normalized growth strictly lower than 1?
OUTPUT: met

INPUT: # TODO verify normalized growth < 1 strictly for this compound: CC(=O)N1CCN(c2ccc(OCC3CO[C@](Cn4ccnc4)(c4ccc(Cl)cc4Cl)O3)cc2)CC1 (some centres not stated)
OUTPUT: met

INPUT: Lab note: normalized growth threshold 1. Does this compound come in strictly under it? NC(=O)c1cc([N+](=O)[O-])cc([N+](=O)[O-])c1
OUTPUT: met

INPUT: Say whether its normalized growth is strictly beneath 1. Entry: COc1ccc(-c2cc(=O)c3c(O)cc(O)c(-c4cc(-c5cc(=O)c6c(O)cc(O)cc6o5)ccc4OC)c3o2)cc1
OUTPUT: met

INPUT: Consider the compound CC1(C)S[C@@H]2C(N3C(=O)[C@@H](c4ccccc4)NC3(C)C)C(=O)N2[C@H]1C(=O)O (some centres not stated) . Is its normalized growth strictly less than 1?
OUTPUT: not met

INPUT: For this compound, is normalized growth lower than 1? C[C@H]1[C@H](C)CC[C@]2(C(=O)O)CC[C@]3(C)C(=CCC4[C@@]5(C)C[C@@H](O)[C@H](O)[C@@](C)(CO)C5[C@H](O)C[C@]43C)[C@H]12 (some centres not stated)
OUTPUT: met

---

Assay: chemical genetic growth profiling, strain panel (AID 1159580);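 note: tested at 20 µM; growth read once vehicle control cultures reached saturation at 30 °C; 1 = growth at the plate median or of vehicle wells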
Details: S. cerevisiae deletion strains, growth OD, locus YDR195W, strain ref2
Out of some 5,500 compounds screened, about 2,000 (36%) were called active. Not shown: some 18% with an inconclusive outcome. Some of the results follow.
REPORTED METRIC: normalized growth

INPUT: Suppose we examine the compound CC1(C)O[C@@H]2CC3C4C[C@H](F)C5=CC(=O)CC[C@]5(C)C4[C@@H](O)C[C@]3(C)[C@]2(C(=O)CO)O1 (stereo partly specified) ; what normalized growth value has been reported?
OUTPUT: 0.991 (inactive)

INPUT: # query: normalized growth of entry COC1=CC(=O)C=C(OC)C1=O
OUTPUT: 1.18 [resistant] (active)

INPUT: Return reported normalized growth; argument: COC(=O)[C@H]1[C@H]2C[C@H]3c4[nH]c5cc(OC)ccc5c4CCN3C[C@H]2C[C@@H](OC(=O)c2cc(OC)c(OC)c(OC)c2)[C@@H]1OC
OUTPUT: 1 (inactive)

INPUT: # query: normalized growth of entry CC1=CC(=O)C(C(C)C)=CC1=O
OUTPUT: 1.03 (inactive)

INPUT: Give its normalized growth value. Item: O=S(=O)(O)O
OUTPUT: 1 (inactive)

INPUT: Need normalized growth of COC1CC(OC2CCC3(C)C(CCC4C3CCC3(C)C(C5=CC(=O)OC5)C(OC(C)=O)CC43O)C2)OC(C)C1O (stereo unspecified) , thanks.
OUTPUT: 1.03 (inactive)

INPUT: Look up normalized growth: COc1ccccc1N1CCN(CCCNc2cc(=O)n(C)c(=O)n2C)CC1
OUTPUT: 1.01 (inactive)

INPUT: Which measured normalized growth value corresponds to Cc1c(OCC(F)(F)F)ccnc1CS(=O)c1nc2ccccc2[nH]1 (stereo unspecified) ?
OUTPUT: 1.02 (inactive)

INPUT: Which normalized growth value is on record for CO[C@@H]1[C@@H](OC(N)=O)[C@@H](O)[C@H](Oc2ccc3c(O)c(NC(=O)c4ccc(O)c(CC=C(C)C)c4)c(=O)oc3c2C)OC1(C)C ?
OUTPUT: 1.04 (inactive)

INPUT: Entry under review: C[C@H]1O[C@@H](O[C@H]2[C@@H](O)C[C@H](O[C@H]3[C@@H](O)C[C@H](O[C@H]4CC[C@]5(C)C6CC[C@]7(C)[C@@H](C8=CC(=O)OC8)CC[C@]7(O)C6CC[C@@H]5C4)O[C@@H]3C)O[C@@H]2C)C[C@H](O)[C@@H]1O (stereo partly specified) . Reported normalized growth?
OUTPUT: 1.03 (inactive)

INPUT: Suppose we examine the compound CC(=O)OCC(=O)[C@@]1(O)CCC2C3C[C@H](C)C4=CC(=O)C=CC4(C)C3[C@@H](O)CC21C (stereo partly specified) ; what normalized growth value has been reported?
OUTPUT: 1.01 (inactive)

INPUT: Given the compound CC1CCCC(C)N1NC(=O)c1ccc(Cl)c(S(N)(=O)=O)c1 (stereo unspecified) , what is its reported normalized growth?
OUTPUT: 1 (inactive)

INPUT: Which normalized growth reading was recorded for the compound NC(=O)c1ccc([N+](=O)[O-])cc1Cl ?
OUTPUT: 1.02 (inactive)

INPUT: For C[C@]12CCC3C(CC[C@]4(O)C[C@@H](O)CC[C@]34C=O)[C@@]1(O)CCC2C1=CC(=O)OC1 (stereo partly specified) , what is its reported normalized growth?
OUTPUT: 1.01 (inactive)

INPUT: What value of normalized growth has been recorded for this entry: COC1C(O)C(O[C@H]2CC[C@]3(C=O)C4C(CC[C@]3(O)C2)[C@@]2(O)CC[C@H](C3=CC(=O)OC3)[C@@]2(C)C[C@H]4OC(C)=O)OC(C)C1OC(C)=O (stereo partly specified)
OUTPUT: 1.01 (inactive)

INPUT: Sample COC(=O)N/N=C\c1c[n+]([O-])c2ccccc2[n+]1[O-] — what was its normalized growth?
OUTPUT: 0.985 (inactive)

INPUT: Report normalized growth for C[C@@H]1CCC2[C@](C)(CO)[C@@H](O)CC[C@]2(C)[C@@]12CC[C@@](CO)(CCO)O2 (stereo partly specified) please.
OUTPUT: 0.959 (inactive)

INPUT: I have this compound here, CCCc1nn(C)c2c(=O)[nH]c(-c3cc(S(=O)(=O)N4CCN(C)CC4)ccc3OCC)nc12 , and I need its recorded normalized growth.
OUTPUT: 0.978 (inactive)

INPUT: Item NC[C@@H]1O[C@H](O[C@@H]2[C@@H](CO)OC(O[C@@H]3[C@@H](O)[C@H](N)C[C@H](N)[C@H]3O[C@H]3O[C@H](CO)[C@@H](O)[C@H](O)[C@H]3N)[C@@H]2O)[C@H](N)[C@@H](O)[C@@H]1O (stereo partly specified) has what recorded normalized growth?
OUTPUT: 0.981 (inactive)

INPUT: Item under review: C[C@H]1O[C@@H](O[C@H]2[C@@H](O)C[C@H](O[C@H]3[C@@H](O)C[C@H](O[C@H]4CC[C@]5(C)C6C[C@@H](O)[C@]7(C)[C@@H](C8=CC(=O)OC8)CC[C@]7(O)C6CC[C@@H]5C4)O[C@@H]3C)O[C@@H]2C)C[C@H](O)[C@@H]1O (stereo partly specified) . Reported normalized growth?
OUTPUT: 0.987 (inactive)

INPUT: Given the entry CC(=O)OC1CC[C@@]2(C)C(CCC3C2CC[C@]2(C)C(C4=CC(=O)OC4)C(OC(C)=O)CC32O)C1 (stereo partly specified) , report its measured normalized growth.
OUTPUT: 0.951 (inactive)
